Each entry below carries its reported z-score.
# Method: HepG2 liver cancer cell viability effects, profiling panel, resazurin fluorescence, 24 h, PK04 Diversity Set (AID 1172); also: test concentration not given here
# Condition Notes: higher = more signal
Reported Metric: z-score

>>> result("CCCCCCc1nc(-c2cc(C)c(OC)c(C)c2)cc2c1[Si](C(C)C)(C(C)C)O[C@H]2c1ccccc1")
0.0796
>>> result("CCCC[C@@H]1C[C@H]1[C@@H](NC(=O)c1cccs1)c1ccc(Cl)cc1")
-0.513
>>> result("COCCOC(=O)N1C(=O)[C@@]2(c3cc(C#CCNC(N)=O)ccc31)[C@H](c1ccccc1OCCO)N1[C@H](c3ccccc3)[C@H](c3ccccc3)OC(=O)[C@H]1[C@@H]2C(=O)NC[C@H](O)c1ccccc1")
0.904
>>> result("COc1cc2c(cc1OC)CN(C(=O)[C@@H]1[C@H]3C(=O)O[C@H](c4ccccc4)[C@H](c4ccccc4)N3[C@H](c3ccccc3OCCO)[C@@]13C(=O)Nc1ccccc13)CC2")
0.193
>>> result("CCCC=C(CCC)[C@@H](NS(=O)(=O)c1cccc(C(F)(F)F)c1)c1ccc(C(=O)OC)cc1")
1.18
>>> result("C#C[C@H](O[Si](C#Cc1ccccc1)(C(C)C)C(C)C)c1ccccc1")
-0.271
>>> result("CC[C@@H]1C=C(C(=O)O)[C@H](c2ccccc2)N1S(=O)(=O)c1ccc([N+](=O)[O-])cc1")
0.244

Reference source for all entries: PubChem BioAssay
